Item-by-item account of EC50
- System: 8505C (thyroid carcinoma)
- procedure-text: SRB cytotoxicity assay, 8505C
- Type: cell-based, human
- measurement-conditions: Homo sapiens; SRB assay, 96 h of treatment, 8505C
Enter your answer as a number in µM; do not include the unit.

The following molecules have reported results that may help.
| molecule | EC50 [µM] |
| --- | --- |
| C[C@@H]1CC[C@]2(C(=O)NCCN3CCCCC3)CC[C@]3(C)C(=CCC4[C@@]5(C)CC[C@H](O)C(C)(C)C5CC[C@]43C)C2[C@H]1C (stereo partly shown) | 11.1 |
| C[C@@H]1CC[C@]2(C(=O)NCCN3CCCC3)CC[C@]3(C)C(=CCC4[C@@]5(C)CC[C@H](O)C(C)(C)C5CC[C@]43C)C2[C@H]1C (stereo partly shown) | 5.7 |
| C[C@@H]1CC[C@]2(C(=O)NCCN3CCNCC3)CC[C@]3(C)C(=CCC4[C@@]5(C)CC[C@H](O)C(C)(C)C5CC[C@]43C)C2[C@H]1C (stereo partly shown) | 7.8 |
| C[C@@H]1CC[C@]2(C(=O)NCCCCN)CC[C@]3(C)C(=CCC4[C@@]5(C)CC[C@H](O)C(C)(C)C5CC[C@]43C)C2[C@H]1C (stereo partly shown) | 10.8 |
| C=C(C)C1CC[C@]2(C(=O)NCCN3CCCC3)CC[C@]3(C)C(CCC4[C@@]5(C)CC[C@H](O)C(C)(C)C5CC[C@]43C)C12 (stereo partly shown) | 0.5 |

Ask: Test system 8505C (thyroid carcinoma); read-out EC50; what value for CC(=O)O[C@H]1CC[C@@]2(C)C(CC[C@]3(C)C2CC=C2C4[C@@H](C)[C@H](C)CC[C@]4(C(=O)NCCOCCN)CC[C@]23C)C1(C)C (stereo partly shown) ?
Reply: 5.8

Ask: Entry to check: C=C(C)C1CC[C@]2(C(=O)NCCCCN)CC[C@]3(C)C(CCC4[C@@]5(C)CC[C@H](O)C(C)(C)C5CC[C@]43C)C12 (stereo partly shown)
Reply: 0.8

Ask: What do you have for C=C(C)C1CC[C@]2(C(=O)NCCN(C)C)CC[C@]3(C)C(CCC4[C@@]5(C)CC[C@H](OC(C)=O)C(C)(C)C5CC[C@]43C)C12 (stereo partly shown) ?
Reply: 1.4

Ask: Try this molecule next: C=C(C)C1CC[C@]2(C(=O)NCCN)CC[C@]3(C)C(CCC4[C@@]5(C)CC[C@H](O)C(C)(C)C5CC[C@]43C)C12 (stereo partly shown)
Reply: 0.4

Ask: # repeat for C=C(C)C1CC[C@]2(C(=O)NCCN3CCNCC3)CC[C@]3(C)C(CCC4[C@@]5(C)CC[C@H](OC(C)=O)C(C)(C)C5CC[C@]43C)C12 (stereo partly shown)
Reply: 1.1

Ask: And the next one, C[C@@H]1CC[C@]2(C(=O)NCCN(C)C)CC[C@]3(C)C(=CCC4[C@@]5(C)CC[C@H](O)C(C)(C)C5CC[C@]43C)C2[C@H]1C (stereo partly shown) ?
Reply: 7.3

Ask: Let us now turn to CC(=O)O[C@H]1CC[C@@]2(C)C(CC[C@]3(C)C2CC=C2C4[C@@H](C)[C@H](C)CC[C@]4(C(=O)NCCN4CCCC4)CC[C@]23C)C1(C)C (stereo partly shown)
Reply: 4.3

Ask: And the next one, CC(=O)O[C@H]1CC[C@@]2(C)C(CC[C@]3(C)C2CC=C2C4[C@@H](C)[C@H](C)CC[C@]4(C(=O)NCCN4CCNCC4)CC[C@]23C)C1(C)C (stereo partly shown) ?
Reply: 5.4

The reported measurements were obtained from paper PMC6222718.
